Attribution: ChEMBL document CHEMBL3988442

Please provide measured Percent Effect for the entries that follow.
# tested system: Aspartate--tRNA(Asp/Asn) ligase (Mycobacterium tuberculosis (strain ATCC 25618 / H37Rv))
# Sequence (whole entry): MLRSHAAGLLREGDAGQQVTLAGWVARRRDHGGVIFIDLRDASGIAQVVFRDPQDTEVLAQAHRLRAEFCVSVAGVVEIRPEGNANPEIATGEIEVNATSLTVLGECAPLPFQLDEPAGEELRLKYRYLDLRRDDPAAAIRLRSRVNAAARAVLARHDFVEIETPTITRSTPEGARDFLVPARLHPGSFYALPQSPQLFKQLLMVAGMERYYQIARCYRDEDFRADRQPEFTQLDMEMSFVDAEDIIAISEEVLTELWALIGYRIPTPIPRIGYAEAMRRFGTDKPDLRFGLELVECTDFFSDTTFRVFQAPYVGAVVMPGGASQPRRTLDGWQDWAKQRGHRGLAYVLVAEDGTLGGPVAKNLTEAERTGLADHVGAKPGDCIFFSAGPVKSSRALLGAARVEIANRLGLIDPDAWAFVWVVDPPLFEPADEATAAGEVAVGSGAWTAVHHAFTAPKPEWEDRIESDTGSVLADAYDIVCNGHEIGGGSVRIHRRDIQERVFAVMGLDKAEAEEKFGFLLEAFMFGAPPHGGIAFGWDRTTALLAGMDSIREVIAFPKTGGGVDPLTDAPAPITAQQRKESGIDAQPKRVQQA
# test: Assay for Asp RNA synthetase-1 from Mycobacterium tuberculosis
# Type: functional
# Set-up: scale not given: in the data most compounds retested in dose-response had high values
# experimental setup: 30 µM
Dear colleague, please return just the value in %, with no unit written.

For the compound shown here, CCc1nnc2n1CCN(C(=O)c1ccc3[nH]cnc3c1)C2 , give the reported Percent Effect.
-2.2

Recorded Percent Effect for CN(C)CC1CN(c2ccc(C#N)cn2)CCO1 (centres undefined) , please?
0.899

Param item = O=C(CCNS(=O)(=O)c1ccc2c(c1)CCCC2)NCc1ccoc1 ; retrieve measured Percent Effect.
0.701

Entry O=C(Cc1csc(-c2ccco2)n1)N1CCN(c2cnccn2)CC1 : reported Percent Effect = ?
-2.43

Look up Percent Effect: CCN(Cc1cccc(Cl)c1)Cc1nc2c(cnn2C)c(=O)[nH]1
-2.28

May I ask what Percent Effect has been recorded for O=S(=O)(C1CC1)N1CC[C@]2(C[C@@H](Oc3ccccn3)CO2)C1 ?
-1.12

Which Percent Effect value is on record for Fc1cccc(-n2ccc(CN3CCCCC3Cn3cncn3)n2)c1 (centres undefined) ?
-3.17

Requested field: Percent Effect. Item: O=c1cc2c(nn1CN1CCOCC1)CCC2
2.64

For N#Cc1ccc(N2CCCN(C(=O)CC3CCCO3)CC2)cc1 (centres undefined) , what is its reported Percent Effect?
4.84

Name the recorded Percent Effect for Cc1cccc(C)c1NC(=O)CCNC(=O)c1ccoc1 .
-1.5

Fill blank: measured Percent Effect of the compound Cn1cc(C(=O)N2CC[C@@H]3[C@@H]2CCN3Cc2cccc(F)c2)cn1 is ____.
-0.0764

Return reported Percent Effect; argument: Cc1nc(CN2CCOCC3(CCN(c4ncccn4)C3)C2)cs1 (centres undefined)
2.24

Entry under review: COc1ccc(C(=O)N(C)Cc2cccc(C#N)c2)c(OC)c1OC . Reported Percent Effect?
-1.51

Returns the measured Percent Effect for the input compound. Input: CCc1nc(C2CCCN2CC(=O)Nc2c(C)nn(C)c2C)no1 (centres undefined)
3.31

State the recorded Percent Effect for this entry: CN1[C@H](Cn2cncn2)C[C@@H]2CN(Cc3cccc(C#N)c3)CC[C@@H]21
0.0985

Percent Effect lookup needed for COC1CCCN(Cc2nc(Cc3ccccc3F)no2)C1 (centres undefined) , thanks.
-7.18

Reported Percent Effect for CCN1CCN(c2nc(C(C)C)nc3c(C)nn(CC)c23)CC1 : what is it?
-2.11

Requested read-out: Percent Effect. Entry: CCc1nc(CC(=O)N2CCCC2Cn2cccn2)cs1 (centres undefined)
0.426

Consider the compound shown here: CC1COCCN1Cc1nc(-c2cccs2)no1 (centres undefined) What is its recorded Percent Effect?
14.7

Endpoint output: Percent Effect of CCC(=O)N1CCC2(CC1)c1nc[nH]c1CCN2S(C)(=O)=O . Value?
-2.17

What measured Percent Effect goes with O=C(NCc1cccc(F)c1)N1CCC2(CC(=O)N(c3ccsc3)C2)C1 (centres undefined) ?
-4.15

What value of Percent Effect has been recorded for this entry: CCc1n[nH]c(C2CN(C(=O)c3nc(C)n4ccccc34)CCO2)n1 (centres undefined)
2.55

For CCCc1nc(NCCCO)c2c(n1)c(C)nn2CC , what is its reported Percent Effect?
-5.08

Any idea what Percent Effect was measured for Cc1nn(C)c(N2CCOCC2)c1CNCc1ccc(Cl)s1 ?
5.1
